This listing pairs compounds with measured EC50.
- assayed target: UniProtKB P41145
- Sequence (P41145 whole entry): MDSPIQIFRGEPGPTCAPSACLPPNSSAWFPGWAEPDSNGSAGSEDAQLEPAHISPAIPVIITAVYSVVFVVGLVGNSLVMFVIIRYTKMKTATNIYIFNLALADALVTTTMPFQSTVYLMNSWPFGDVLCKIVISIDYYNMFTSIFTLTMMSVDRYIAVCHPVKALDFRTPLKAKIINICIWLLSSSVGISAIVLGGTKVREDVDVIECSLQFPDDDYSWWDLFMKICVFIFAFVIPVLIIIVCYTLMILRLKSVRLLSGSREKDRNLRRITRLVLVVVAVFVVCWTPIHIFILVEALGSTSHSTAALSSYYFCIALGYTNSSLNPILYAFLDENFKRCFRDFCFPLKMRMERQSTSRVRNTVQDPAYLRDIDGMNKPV
- assay summary: κ-opioid receptor [35S]GTPγS functional assay, HEK-293 or CHO cells
- Assay type: biochemical
- Parameters: expressed in transfected cells; host or cells: U-2 OS (in-house membranes)

Reference set, count: 2
structure string: CN(C(=O)/C=C/c1ccoc1)[C@@H]1[C@H]2Cc3ccc(O)cc3[C@@]1(C)CCN2CC1CC1
EC50: > 20 µM
//
structure string: COc1ccc2c(c1)[C@@]1(C)CCN(C)C(C2)[C@@H]1CNC(=O)Cc1ccc(Cl)c(Cl)c1
EC50: > 20 µM

Continue with the compound presented below.
QUERY: Given the entry CN1CC[C@]2(C)c3cc(O)ccc3CC1[C@@H]2COc1ncc([C@H](O)CO)cc1Cl , report its measured EC50.
RESULT: > 20 µM
